Listed next: entries and their corresponding melting point.

Example cases with answers are listed next.
> print(dat)
                                   molecule  observedmeasurement
1            Cc1cccc(S(=O)(=O)n2cccn2)c1C#N         99 to 104 °C
2  CCCCc1nc2cccc(C(=O)OC)c2n1Cc1ccc(-c2ccccc2C#N)cc1        123 to 124 °C
3  COc1ccccc1C1(O)C(O)CC(C)(C)C2CN(Cc3ccccc3)CC21 (stereo not given)               190 °C
4  CC(=O)Nc1cc(C)c2c(n1)N(C1CC1)c1ncccc1C(=O)N2C(C)=O        211 to 213 °C

Qu. Data request, read-out melting point, for Cc1c(C)n(Cc2ccccc2)c(=O)[nH]c1=O
Ans. 187 to 189 °C

====

Listed next: entries and their corresponding melting point.

Example cases with answers are listed next.
> print(dat)
                                   molecule  propertylabel  observedmeasurement
1  COc1ccc([N+](=O)[O-])c(C=C[N+](=O)[O-])c1OCc1ccccc1  melting point        118 to 119 °C
2                CN(C)C(=O)Sc1ccc(Br)cc1C=O  melting point        118 to 120 °C
3      CCCc1c(O)ccc2oc(Cc3ccc(F)cc3)c(C)c12  melting point        121 to 123 °C
4  O=C(O)CN1C(=O)C(=Cc2ccc([N+](=O)[O-])cc2)SC1=S  melting point        274 to 277 °C
5  O=C(O)COc1cc(F)ccc1C(=O)NCc1nc2c(F)c(F)cc(F)c2s1  melting point        172 to 174 °C

Qu. Data request, read-out melting point, for O=[N+]([O-])c1ccc(NCCc2c[nH]cn2)nc1
Ans. 162 to 163 °C

Qu. Data request, read-out melting point, for CC(=O)c1cc2cnccc2n1S(=O)(=O)c1ccccc1
Ans. 205 °C

====

Listed next: entries and their corresponding melting point.

Example cases with answers are listed next.
> print(dat)
                                   molecule  propertylabel  observedmeasurement
1  O=C(c1ccc(F)cc1)C1(c2ccccc2)CCN(Cc2ccccc2)CC1  melting point               148 °C
2            CN(C)CCCNc1ccnc2cc3c(cc12)OCO3  melting point        178 to 181 °C
3  O=C(O)Cc1ccc(N2CC3CCCCC3C2=O)cc1 (stereo not given)  melting point        157 to 159 °C
4  CCOC(=O)C(C(=O)c1ccc(C#N)cc1)C1c2ccccc2Oc2ccccc21 (stereo not given)  melting point               141 °C
5  COC(=O)c1ccccc1-n1c(CCl)nc2c(C)cccc2c1=O  melting point        168 to 169 °C

Qu. Data request, read-out melting point, for CCOC(=O)c1[nH]c2c(c1O)CCCC2
Ans. 94 to 95 °C

Qu. Data request, read-out melting point, for CCCc1c(OCc2ccc(/C=C3\SC(=S)NC3=O)cc2)ccc(C(C)=O)c1O
Ans. 236 to 238 °C

Qu. Data request, read-out melting point, for O=C1CCC(c2cccc(F)c2)(c2cccc(F)c2)[C@@H]2CN(C(=O)Cc3ccccc3)C[C@H]12 (racemic)
Ans. 108 °C

Qu. Data request, read-out melting point, for CCOC(=O)c1cc(=O)c2cccc(NC(=O)c3ccc4c(c3)CC(CSCc3ccccc3)O4)c2o1 (stereo not given)
Ans. 175 to 177 °C

Qu. Data request, read-out melting point, for O=C1c2ccccc2C(=O)N1Cc1ccc(Cl)nc1
Ans. 142 to 143 °C

====

propertyLabel: melting point

Example cases with answers are listed next.
> print(dat)
                                   molecule  observedmeasurement
1  CC(C)COC(=O)Oc1ccc(S(=O)(=O)c2ccc(S(N)(=O)=O)s2)cc1        111 to 112 °C
2  CCCCCC(O)/C=C/n1ccnc1 (stereo not given)        145 to 148 °C
3  O=C1c2c(OCc3ccccc3)c(OCc3ccccc3)cc(OCc3ccccc3)c2-c2nn(CCNCCO)c3ccc(NCCNCCO)c1c23        186 to 188 °C
4  CSc1nnc(-c2ccc3ncn(-c4cccc(OC(F)(F)F)c4)c3c2)o1        149 to 150 °C
5  Cc1ncsc1NC(=O)Nc1ccc(-n2nc(C(F)(F)F)cc2C2CC2)cc1        124 to 126 °C

Qu. Data request, read-out melting point, for O=C(Nc1cccc2c1C(=O)N(CC(=O)N1CCN(c3ccncc3)CC1)C2=O)c1ccc(Cl)s1
Ans. 207 °C

Qu. Data request, read-out melting point, for O=C(c1ccc(-c2ccncc2)cc1)N1CCN(S(=O)(=O)c2nc3ccc(Cl)cc3[nH]2)CC1
Ans. 242 to 244 °C

Qu. Data request, read-out melting point, for OCC1OC(n2cnc3c(NCC(c4ccccc4)c4ccccc4)nc(Cl)nc32)C(O)C1O (stereo not given)
Ans. 120 to 123 °C

Qu. Data request, read-out melting point, for CCOC(=O)c1cnc2c(F)c(Br)c(F)cc2c1O
Ans. 285 °C

Qu. Data request, read-out melting point, for CCOc1cc(N(CC)CC)ccc1-c1nc2n(C3CCCC3)[nH]c(CC)c-2c(=O)n1
Ans. 138 to 139 °C

Qu. Data request, read-out melting point, for CC(C)COc1ccc(C(=O)N/C(=C\c2ccc(C(C)C)cc2)C(=O)NCCO)cc1
Ans. 178 to 180 °C

Qu. Data request, read-out melting point, for Nc1ccccc1-c1n[nH]c(=S)n1N
Ans. 191 to 192 °C

====

Listed next: entries and their corresponding melting point.

> print(dat)
                                   compound  propertylabel  observedmeasurement
1  COc1cc2c(cc1OC)/C(=N/OCc1ccc3nonc3c1)CCC2  melting point        139 to 140 °C
2  CCOC(=O)c1cccc(NC(=O)c2cc(C(C)C)c(C(C)C)o2)c1  melting point        144 to 145 °C
3       CCOC(=O)c1c(C)nn2c(-c3cccnc3)ccnc12  melting point        145 to 146 °C
4  Oc1ccc2c(c1)OCC(c1cccc(C(F)(F)F)c1)C2c1ccc(OCCN2CCCC2)cc1 (configuration not stated)  melting point          87 to 89 °C

# context switch: different compound, same melting point
Qu. Data request, read-out melting point, for CCOC(=O)C(N)C=CCP(=O)(O)O (configuration not stated)
Ans. 167 to 168 °C

====

Listed next: entries and their corresponding melting point.

> print(dat)
                                   molecule  observedmeasurement
1      O=C(O)C(Cl)(Cl)CCCCCCCCCCCCSc1ccccc1                74 °C
2  CCOC(=O)c1cnc(-c2ccccc2)nc1-c1ccc([N+](=O)[O-])cc1        138 to 140 °C
3   CN(C(=O)CN(O)C(N)=O)c1cccc(Oc2ccccc2)c1        110 to 112 °C
4                FC(F)(F)c1nc(Cl)c(Cl)[nH]1        186 to 188 °C
5  CSc1ccn2nc(S(=O)(=O)Nc3c(Cl)cccc3Cl)nc2n1        239 to 243 °C

# context switch: different molecule, same melting point
Qu. Data request, read-out melting point, for Clc1ccc(-c2coc3c(Br)cccc23)cc1Cl
Ans. 158 to 160 °C

====

Listed next: entries and their corresponding melting point.

Example cases with answers are listed next.
> print(dat)
                                   molecule  observedmeasurement
1  CCCCc1nc(S)c(C(=O)OCC)n1Cc1cc2c(cc1Cl)OCO2               114 °C
2  Cc1cc(CN2CCC(N(C)S(=O)(=O)c3ccc(Nc4nccc(Nc5ccc(F)c(C)c5)n4)cc3)CC2)no1        172 to 173 °C
3  CCCCOP(=O)(OCCCC)OCN1C(=O)NC(c2ccccc2)(c2ccccc2)C1=O      94.8 to 96.9 °C

# context switch: different molecule, same melting point
Qu. Data request, read-out melting point, for COc1ccc(CNc2cc3c(Nc4ccc(OCc5ccccn5)c(Cl)c4)ncnc3cn2)cc1
Ans. 182 to 184 °C

====

propertyLabel: melting point

> print(dat)
                                   compound  observedmeasurement
1  CC(C)Oc1ccc(CCCOc2cc(CCC(=O)O)n(Cc3ccccc3)n2)c(Oc2ncc(C(F)(F)F)cc2Cl)c1         99 to 100 °C
2  CCc1[nH]nc(C(=O)NC2CCCC2)c1NC(=O)c1cnccn1        175 to 176 °C
3            COc1cc2c(cc1O)CCN(Cc1ccccc1)C2        134 to 135 °C
4   CCOCc1nc2c(N)nc3ccccc3c2n1CCCc1cc(C)no1        163 to 164 °C
5  Cc1cc(-n2ccnc2)c2cccc(OCc3c(Cl)ccc(S(=O)(=O)N4CCC[C@H]4C(=O)NCCN(C)C)c3Cl)c2n1                88 °C

Qu. Data request, read-out melting point, for Cc1ccc2c(c1)C(c1ncnc3c1cnn3C1CCCC1)C(=O)N2 (configuration not stated)
Ans. > 300 °C

Qu. Data request, read-out melting point, for Cn1ccc2cc(N3Cc4ccc(N5CCCC5)cc4C3=O)ccc21
Ans. 252 to 253 °C

Qu. Data request, read-out melting point, for S=C(Cc1ccccc1N1CCOCC1)N1CCOCC1
Ans. 140 °C

Qu. Data request, read-out melting point, for CNc1ncc2c(n1)N(c1ccccc1)C(=O)N(c1c(Cl)cccc1Cl)C2
Ans. 211 to 213 °C

Qu. Data request, read-out melting point, for COc1cccc2c1CCc1c-2occ(C=O)c1=O
Ans. 201 to 202 °C

Qu. Data request, read-out melting point, for O=C(O)CN1C(=O)C(=Cc2c[nH]c3ccc(Cl)cc23)SC1=S
Ans. 278 to 282 °C

Qu. Data request, read-out melting point, for BrCCOc1ccsc1
Ans. 46 °C

Qu. Data request, read-out melting point, for O=CN1CC2Oc3ccccc3OC2C1 (configuration not stated)
Ans. 207 to 208 °C

Qu. Data request, read-out melting point, for CCOC(=O)CCSC(CC)=NNC(N)=O
Ans. 63.5 to 64.5 °C

Qu. Data request, read-out melting point, for COC(=O)C(=Cc1ccccc1)c1ccc2nc(-c3ccccc3)oc2c1
Ans. 184 to 185 °C

Qu. Data request, read-out melting point, for CC(C)(O)C(C)(O)Cc1ccccc1 (configuration not stated)
Ans. 72 to 74 °C

Qu. Data request, read-out melting point, for CC(=O)NC[C@H]1CN(c2cc(F)c(N3CCC(Cc4nnn[nH]4)CC3)c(F)c2)C(=O)O1
Ans. 176 to 178 °C

Qu. Data request, read-out melting point, for O=C(NCc1ccccn1)OC1Cc2ccccc2N(S(=O)(=O)c2ccc(Cl)cc2)C1 (configuration not stated)
Ans. 106 to 110 °C

Qu. Data request, read-out melting point, for CC(C)[C@H](CC(N)=O)NC(=O)OCc1ccccc1
Ans. 171 to 172 °C

Qu. Data request, read-out melting point, for CC1Cc2c(N3C(=O)C4=C(CCCC4)C3=O)ccc(Cl)c2O1 (configuration not stated)
Ans. 134 to 137 °C

Qu. Data request, read-out melting point, for Cc1nn(C)c2nc(-c3ccccc3)cc(O)c12
Ans. 262 to 264 °C

Qu. Data request, read-out melting point, for Cc1csc2c(-c3ccccc3)c(-c3ccc(Cl)s3)c(CC(=O)O)n12
Ans. 182 to 183 °C

Each recorded value in this set is attributed to a melting point compilation (Tetko et al.; mined from patent text by program, amines drawn as free bases though some values may be those of a salt).
